assay: APR_HepG2_CellCycleArrest_24hr: Apredica 24-hour HepG2 Assay for Cell Cycle Arrest (AID 2282905); conditions: imaging, actives raise or lower the signal;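 note: cell cycle arrest scored as ratio of 2N to 4N nuclear DNA content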
Activity calls are given as the source filed them. Rule for the calls: active = hit-call score of the fitted dose curve at least 0.9, where 1 is the maximum; inactive = score below 0.9.
TEST READOUT: AC50

Worked cases, AC50 given:
O=c1c(-c2ccc(O)cc2)coc2cc(O)ccc12 = inactive
CC[C@H](C)[C@@H](C(=O)O)n1sc2ccccc2c1=O = inactive
CCCCCCCCCCCCN1CCCC1=O = 53.5 µM (active)
c1ccc2c(c1)Cc1ccccc1-2 = inactive
CN1CCN(c2ccccc2/C=C2\SCCN(c3ccc(Cl)c(Cl)c3)C2=O)CC1 = inactive

Problem: What value of AC50 has been reported for the following compound? CCCCCCCCC(=O)O
Solution: inactive

---

assay: ACEA_AR_agonist_AUC_viability: ACEA Biosciences xCELLigence Real-Time Cell Analysis on Androgen Receptor Agonism for Viability (AID 2283775)
Inconclusive results are not listed. Activity calls are given as the source filed them. Rule for the calls: active = hit-call score of the fitted dose curve at least 0.9, where 1 is the maximum; inconclusive = response in the unintended direction; inactive = score below 0.9.
Please state which outcome applies, choosing from True = active, False = inactive

Problem: So what was the verdict on CCCOC(=O)c1ccc(O)cc1 in this test?
Solution: False

Problem: Let us now turn to OCCC(F)(F)C(F)(F)C(F)(F)C(F)(F)C(F)(F)C(F)(F)C(F)(F)C(F)(F)F
Solution: False

Problem: CCC(C)(C)C1CCC(O)CC1 (centres undefined) , same question.
Solution: False

Problem: Proceed to c1ccc2c(c1)Cc1ccccc1-2
Solution: False

Problem: Now the molecule CCCCCCCCC(=O)O
Solution: False

Problem: Moving on to the next molecule: ClC1=C(Cl)C(Cl)(Cl)C(Cl)=C1Cl
Solution: True

Problem: And for CCCCCCCCCCCCCC[N+](C)(C)C ?
Solution: True

Problem: Next molecule: CCCCCCCC(=O)O
Solution: False

Problem: Another molecule: CN1CCN(c2ccccc2/C=C2\SCCN(c3ccc(Cl)c(Cl)c3)C2=O)CC1
Solution: True

Problem: Now consider CC(=O)NC1(c2cccc(F)c2)CCN(CC[C@@]2(c3ccc(Cl)c(Cl)c3)CN(c3ccccc3)C(=O)CO2)CC1 .
Solution: True

Problem: Same again, this time with CC(O)C(=O)O (centres undefined)
Solution: False

Problem: Continue with CC(C)(C)c1cccc(C(C)(C)C)c1O
Solution: False

Problem: Okay, and NC(=O)N(O)[C@@H]1C=C[C@H](Oc2cccc(Oc3ccc(F)cc3)c2)C1 ?
Solution: True

Problem: Also need CC[C@H](c1ccc(O)cc1)[C@@H](CC)c1ccc(O)cc1 , thanks.
Solution: True

Problem: What about CCN(CC)CCNc1ccc(CNC=O)c2sc3ccc(OC)cc3c(=O)c12 ?
Solution: True

Problem: Also need CCCCC(CC)COC(=O)CCCCC(=O)OCc1ccccc1 (centres undefined) , thanks.
Solution: False

Problem: Next up: O=C(O)Cc1cc(I)c(Oc2cc(I)c(O)c(I)c2)c(I)c1
Solution: True

Problem: Now consider c1ccc2c(c1)ccc1ccccc12 and answer again.
Solution: True

Problem: Likewise for O=C(O)c1ccccc1C(c1ccc(O)cc1)c1ccc(O)cc1 ?
Solution: False

Problem: Next record, please: CC(C)CCCCCCOC(=O)CCCCC(=O)OCCCCCCC(C)C
Solution: False

Problem: Would you kindly repeat that for CC#C[C@]1(O)CC[C@H]2[C@@H]3CCC4=CC(=O)CCC4=C3[C@@H](c3ccc(N(C)C)cc3)C[C@@]21C ?
Solution: True

Problem: Same question for Cc1oc(-c2ccccc2)nc1CCOc1ccc(C[C@H](Nc2ccccc2C(=O)c2ccccc2)C(=O)O)cc1 please.
Solution: True

Problem: And then CN1CCC[C@H]1c1cccnc1 , what is it?
Solution: False

Problem: Query CCCCCCCCCCCCN1CCCC1=O next
Solution: True

Problem: Now this one: CC(C)(C)c1ccc(O)c(C(C)(C)C)c1
Solution: True

Problem: Try this molecule next: CC(O)CO (centres undefined)
Solution: False

Problem: Next entry: Cc1ccc(S(=O)(=O)O)c(C)c1
Solution: False

Problem: Follow-up entry: COCC(C)O (centres undefined)
Solution: False

Problem: Next up: CCc1ccc(CCOc2ccc(CC3SC(=O)NC3=O)cc2)nc1 (centres undefined)
Solution: True

Problem: What do we get for O=C1OC2(c3ccccc31)c1cc(Br)c(O)c(Br)c1Oc1c2cc(Br)c(O)c1Br ?
Solution: False

Problem: Another molecule to look at: O=[N+]([O-])c1ccc(O)cc1
Solution: False

Problem: Now try NC(=O)N1C(=O)C(C(=O)c2cc(Cl)cs2)c2cc(F)c(Cl)cc21 (centres undefined) .
Solution: False

Problem: Please do the same for OC1CCCCC1 as well.
Solution: False

Problem: Same question, C=C(C)C(=O)OCCC(F)(F)C(F)(F)C(F)(F)C(F)(F)C(F)(F)C(F)(F)F this time
Solution: False

Problem: Now the same for CCCCCCCCCCCCc1ccccc1S(=O)(=O)O
Solution: False

Problem: Now consider CCCCOCCO .
Solution: False

Problem: Please answer likewise for COCC(C)OCC(C)O (centres undefined)
Solution: False

Problem: What do you get for O=c1c(-c2ccc(O)cc2)coc2cc(O)ccc12 ?
Solution: False

Problem: Also CC(C)(C)CC(C)(C)c1ccc(O)c(-n2nc3ccccc3n2)c1 ?
Solution: True
